Can you tell me IC50 for the items I'm about to list?
Measured target: Human recombinant t-PA (Activase) (Homo sapiens, UniProt P00750)
Sequence (P00750 36-562): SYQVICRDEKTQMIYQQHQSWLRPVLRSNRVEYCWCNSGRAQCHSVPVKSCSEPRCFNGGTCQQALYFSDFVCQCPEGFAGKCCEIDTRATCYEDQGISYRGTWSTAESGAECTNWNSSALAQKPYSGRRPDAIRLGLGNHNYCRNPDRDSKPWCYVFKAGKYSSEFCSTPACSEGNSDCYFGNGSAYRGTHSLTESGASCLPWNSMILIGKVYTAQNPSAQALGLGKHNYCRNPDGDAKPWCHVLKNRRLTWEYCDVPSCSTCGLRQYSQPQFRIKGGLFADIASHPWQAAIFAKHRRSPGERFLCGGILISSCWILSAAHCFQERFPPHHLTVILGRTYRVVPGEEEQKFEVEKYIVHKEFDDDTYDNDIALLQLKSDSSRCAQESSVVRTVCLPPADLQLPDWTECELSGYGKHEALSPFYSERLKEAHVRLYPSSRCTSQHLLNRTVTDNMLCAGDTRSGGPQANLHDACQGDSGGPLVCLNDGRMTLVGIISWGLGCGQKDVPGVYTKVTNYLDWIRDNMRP
Test description: tPA assay (substrate Pefachrome tPA)
Run parameters: 60 min preincubation at room temperature; >25 means less than 50% inhibition at 25 μM
Experimental: To assay their activities, the compounds of the present invention are dissolved in buffer to give solutions containing concentrations ranging under assay concentrations from 0 to about 100 μM. The enzyme to be tested is then added to a solution containing a specified concentration of the test compound. […] The rate of substrate turnover is determined spectrophotometrically. The IC50 of the test compound is determined for each test compound in assays for factor Xa, factor XIa, thrombin and tPA. […]
Numbered stars: 1 amine (or outer) side, 2 acyl side, 3 side chain; on linkers, the order of the positions; unused ones are H or OH. Square brackets hold non-standard residues; d marks the D form. Peptide text beside a SMILES is read from it. * marks the point of attachment. 1Nal = N[C@@H](Cc1cccc2ccccc12)C(=O)O; 2Nal = N[C@@H](Cc1ccc2ccccc2c1)C(=O)O; d2Nal = N[C@H](Cc1ccc2ccccc2c1)C(=O)O; Suc = O=C(CCC(=O)[*:2])[*:1]; Boc = CC(C)(C)OC(=O)*

Completed entries (count: 3):
CC(C)(C)OC(=O)N[C@H](Cc1ccc2ccccc2c1)C(=O)N[C@@H](Cc1ccccc1)C(=O)N[C@H](C=O)CCCNC(=N)N [[1]] (Boc-[d2Nal]-Phe-Arg-aldehyde) | > 25 µM
CC(C)(C)OC(=O)N[C@H](Cc1ccccc1)C(=O)N[C@@H](Cc1ccc2ccccc2c1)C(=O)N[C@H](C=O)CCCNC(=N)N [[3]] (Boc-[dF]-[2Nal]-Arg-aldehyde) | > 25 µM
N=C(N)NCCC[C@@H](C=O)NC(=O)[C@H](Cc1cccc2ccccc12)NC(=O)[C@@H](Cc1ccccc1)NC(=O)CCC(=O)O [[8]] (Suc-[dF]-[1Nal]-Arg-aldehyde) | > 25 µM

Give IC50 for all molecules that follow.
1. CC(C)(C)OC(=O)N[C@H](Cc1ccccc1)C(=O)N1CCC[C@H]1C(=O)N[C@H](C=O)CCCNC(=N)N [[23], reference compound]
2. CC(C)(C)OC(=O)N[C@H](Cc1ccccc1)C(=O)N1CC[C@H](c2ccccc2)[C@H]1C(=O)N[C@H](C=O)CCCNC(=N)N (relative stereo) [[10]]

["1.1 µM", "> 25 µM"]
